experiment: Toxicity liver stage against HepG2, at 10uM; type: cell-based; design: test concentration 10 uM, cell line HepG2-A16-CD81EGFP; details: human, HepG2-A16-CD81EGFP cells; read-out: INHIBITION
observable: cytotoxicity at 10 µM (%)
A number alone suffices; assume %.

Complete the entry with cytotoxicity at 10 µM for CN(C)c1nccc(CNC(=O)NC(C)(C)C)n1
-7.36

Complete the entry with cytotoxicity at 10 µM for COc1ccnc(N2CCC3(CC2)[C@H](O)C[C@@H]3OCCN(C)C)n1
1.03

Complete the entry with cytotoxicity at 10 µM for CNC(=O)NC(=O)Cn1cc(-c2ccccc2)cn1
3.37

Complete the entry with cytotoxicity at 10 µM for COC(=O)CCC(=O)N1CCC2(CN(Cc3cccc(F)c3)C2)C1
4.6

Complete the entry with cytotoxicity at 10 µM for CN(C)C(=O)c1cccnc1-c1ccc2c(c1)OCCO2
5.73

Complete the entry with cytotoxicity at 10 µM for O=C(Nc1ccccn1)C1CC(=O)N(Cc2ccccn2)C1 (stereo unspecified)
2.84

Complete the entry with cytotoxicity at 10 µM for Cc1nc(C2CCCN2Cc2nc(C3CC3)no2)no1 (stereo unspecified)
-12.7

Complete the entry with cytotoxicity at 10 µM for Cc1nc(C)c(CC(=O)Nc2nnc(C)s2)c(=O)[nH]1
-2.17

Complete the entry with cytotoxicity at 10 µM for Cc1cc(C2CCCN2Cc2nc3c(cnn3C)c(=O)[nH]2)on1 (stereo unspecified)
-10.7

Complete the entry with cytotoxicity at 10 µM for Cc1nc(CN2C[C@@H]3CN(C(=O)NC(C)C)C[C@@H]3C2=O)cs1
-76.2

Complete the entry with cytotoxicity at 10 µM for O=C1CC2(CCN(Cc3ccco3)C2)CN1c1ccc2c(c1)OCO2 (stereo unspecified)
-75.9
